For each of the molecules below, state its heart rate at 72 hpf.
Test system: Danio rerio embryo (fli1:egfp)
Test: heart rate at 72 hpf (beats per minute); higher = faster heart rate
Settings: 0.195 µM; exposure: 5-72 hpf
Reply with just the number.

Per the record, CCCCSP(=O)(SCCCC)SCCCC has heart rate at 72 hpf of 182

# heart rate at 72 hpf (molecule: CCOC(=O)COc1cc(-n2ncc(C(F)(F)F)c(C)c2=O)c(F)cc1Cl ) is 181

CC(C)Oc1cc(-n2nc(C(C)(C)C)oc2=O)c(Cl)cc1Cl yielded heart rate at 72 hpf of 190

Sure, the documented heart rate at 72 hpf for CCOc1cc(Oc2ccc(C(F)(F)F)cc2Cl)ccc1[N+](=O)[O-] is 187

The molecule identified as CC1(C)C(C=C(Cl)Cl)C1C(=O)OC(C#N)c1ccc(F)c(Oc2ccccc2)c1 (configuration not stated) registered its heart rate at 72 hpf at 188

Lab note: CO/N=C(/C1=NOCCO1)c1ccccc1Oc1ncnc(Oc2ccccc2Cl)c1F gave heart rate at 72 hpf of 198

heart rate at 72 hpf reported for this molecule CCOC(=O)C(Cl)Cc1cc(-n2nc(C)n(C(F)F)c2=O)c(F)cc1Cl (configuration not stated) : 187

Per the record, CCCCCOC(=O)COc1cc(N2C(=O)C3=C(CCCC3)C2=O)c(F)cc1Cl has heart rate at 72 hpf of 166

The molecule identified as C[C@@]1(c2ccc(Oc3ccccc3)cc2)OC(=O)N(Nc2ccccc2)C1=O (racemic) registered its heart rate at 72 hpf at 188

Value of heart rate at 72 hpf reported for the molecule CO/N=C(/C(=O)OC)c1ccccc1CO/N=C(\C)c1cccc(C(F)(F)F)c1 is 167

For this molecule ( C#CCN1C(=O)COc2cc(F)c(N3C(=O)C4=C(CCCC4)C3=O)cc21 ), measured heart rate at 72 hpf is 160

Value of heart rate at 72 hpf reported for the molecule CC1(C)C(C(=O)OC(C#N)c2cccc(Oc3ccccc3)c2)C1(C)C (configuration not stated) is 191

Field heart rate at 72 hpf (entry C=CCOC(=O)C(C)(C)OC(=O)c1cc(-n2c(=O)cc(C(F)(F)F)n(C)c2=O)ccc1Cl ) reads 191

heart rate at 72 hpf in this record for CCOC(=O)COc1cc(-c2nn(C)c(OC(F)F)c2Cl)c(F)cc1Cl : 174

// heart rate at 72 hpf lookup, molecule = CCOC(=O)C(C)OC(=O)c1cc(Oc2ccc(C(F)(F)F)cc2Cl)ccc1[N+](=O)[O-] (configuration not stated) , result: 191

For reference, reported heart rate at 72 hpf for C#CCOC(=O)[C@@H](C)Oc1ccc(Oc2ncc(Cl)cc2F)cc1 stands at 183

Lookup result for COC(=O)N(C(=O)N1CO[C@@]2(C(=O)OC)Cc3cc(Cl)ccc3C2=N1)c1ccc(OC(F)(F)F)cc1 ; measured heart rate at 72 hpf: 176

Ref: the supplement of paper PMC4121296
